test: Phase 1 multiple escalating dose study, QD intravenous infusion for 14 days, safety and pharmacokinetics
Assay type: in vivo, human
conditionDescription: human, whole blood; 800 μg QD IV infusion for 14 days, blood, secondary predicted parameter
Protocol: The present study was designed to evaluate the pharmacokinetics of zotarolimus following multiple dosing and to assess its safety while maximizing systemic exposure of healthy subjects. […] Phase 1, multiple-escalating dose, double-blind, placebo-controlled, randomized study. […] Blood and urine zotarolimus concentrations were determined using a validated LC/MS/MS method. Pharmacokinetic parameters were determined by compartmental analysis. […] Fraction of drug eliminated in urine was determined. […]
measuredParameter: Cmax (ng/mL)
Expressed in ng/mL, but write only the number.

query: Return reported Cmax; argument: `CO[C@H]1C[C@@H]2CC[C@@H](C)[C@@](O)(O2)C(=O)C(=O)N2CCCC[C@H]2C(=O)O[C@H]([C@H](C)C[C@@H]2CC[C@H](n3cnnn3)[C@H](OC)C2)CC(=O)[C@H](C)/C=C(\C)[C@@H](O)[C@@H](OC)C(=O)[C@H](C)C[C@H](C)/C=C/C=C/C=C/1C`
result: 38.7

* * *

test: Phase 1 multiple escalating dose study, QD intravenous infusion for 14 days, safety and pharmacokinetics
Type: in vivo, human
conditionDescription: human, whole blood; 400 μg QD IV infusion for 14 days, blood, secondary predicted parameter; read-out: Vss
measuredParameter: Vd (L)
A number alone suffices; assume L.

query: I would be grateful if you could share the reported Vd for CO[C@H]1C[C@@H]2CC[C@@H](C)[C@@](O)(O2)C(=O)C(=O)N2CCCC[C@H]2C(=O)O[C@H]([C@H](C)C[C@@H]2CC[C@H](n3cnnn3)[C@H](OC)C2)CC(=O)[C@H](C)/C=C(\C)[C@@H](O)[C@@H](OC)C(=O)[C@H](C)C[C@H](C)/C=C/C=C/C=C/1C [zotarolimus] .
result: 112

* * *

test: Phase 1 multiple escalating dose study, QD intravenous infusion for 14 days, safety and pharmacokinetics
Type: in vivo, human
conditionDescription: human, whole blood; 200 μg QD IV infusion for 14 days, blood, secondary predicted parameter
measuredParameter: Cmax (ng/mL)
Value expressed in ng/mL; do not type the unit.

query: Give its Cmax value. Item: CO[C@H]1C[C@@H]2CC[C@@H](C)[C@@](O)(O2)C(=O)C(=O)N2CCCC[C@H]2C(=O)O[C@H]([C@H](C)C[C@@H]2CC[C@H](n3cnnn3)[C@H](OC)C2)CC(=O)[C@H](C)/C=C(\C)[C@@H](O)[C@@H](OC)C(=O)[C@H](C)C[C@H](C)/C=C/C=C/C=C/1C [zotarolimus]
result: 11.2

* * *

test: Phase 1 multiple escalating dose study, QD intravenous infusion for 14 days, safety and pharmacokinetics
Format: in vivo, human
conditionDescription: human, whole blood; 200-800 μg QD IV for 14 days; read-out: Vss, range of means over the studied regimens
measuredParameter: Vd

query: Look at this compound and give its reported Vd. `CO[C@H]1C[C@@H]2CC[C@@H](C)[C@@](O)(O2)C(=O)C(=O)N2CCCC[C@H]2C(=O)O[C@H]([C@H](C)C[C@@H]2CC[C@H](n3cnnn3)[C@H](OC)C2)CC(=O)[C@H](C)/C=C(\C)[C@@H](O)[C@@H](OC)C(=O)[C@H](C)C[C@H](C)/C=C/C=C/C=C/1C`
result: 92.5 to 118 L

* * *

test: Phase 1 multiple escalating dose study, QD intravenous infusion for 14 days, safety and pharmacokinetics
Format: in vivo, human
conditionDescription: human, whole blood; 200-800 μg QD IV; time 0 to infinity including all 14 doses; read-out: All Day-AUC0-∞, range over the studied regimens
measuredParameter: AUC(0-inf)

query: Endpoint output: AUC(0-inf) of `CO[C@H]1C[C@@H]2CC[C@@H](C)[C@@](O)(O2)C(=O)C(=O)N2CCCC[C@H]2C(=O)O[C@H]([C@H](C)C[C@@H]2CC[C@H](n3cnnn3)[C@H](OC)C2)CC(=O)[C@H](C)/C=C(\C)[C@@H](O)[C@@H](OC)C(=O)[C@H](C)C[C@H](C)/C=C/C=C/C=C/1C` . Value?
result: 677 to 2400 ng·h/mL

* * *

test: Phase 1 multiple escalating dose study, QD intravenous infusion for 14 days, safety and pharmacokinetics
Format: in vivo, human
conditionDescription: human, whole blood, intravenous; 400 μg QD dose group; read-out: median All Day −AUC0-∞
measuredParameter: AUC(0-inf) (ng·h/mL)
// return numeric value only (unit: ng·h/mL, not printed)

query: Which AUC(0-inf) is listed for `CO[C@H]1C[C@@H]2CC[C@@H](C)[C@@](O)(O2)C(=O)C(=O)N2CCCC[C@H]2C(=O)O[C@H]([C@H](C)C[C@@H]2CC[C@H](n3cnnn3)[C@H](OC)C2)CC(=O)[C@H](C)/C=C(\C)[C@@H](O)[C@@H](OC)C(=O)[C@H](C)C[C@H](C)/C=C/C=C/C=C/1C` ?
result: 1440

* * *

test: Phase 1 multiple escalating dose study, QD intravenous infusion for 14 days, safety and pharmacokinetics
Format: in vivo, human
conditionDescription: human, whole blood; 800 μg QD IV infusion for 14 days, blood, secondary predicted parameter; read-out: CL (converted)
measuredParameter: clearance
Kindly format the answer as number then unit.

query: Using the record for CO[C@H]1C[C@@H]2CC[C@@H](C)[C@@](O)(O2)C(=O)C(=O)N2CCCC[C@H]2C(=O)O[C@H]([C@H](C)C[C@@H]2CC[C@H](n3cnnn3)[C@H](OC)C2)CC(=O)[C@H](C)/C=C(\C)[C@@H](O)[C@@H](OC)C(=O)[C@H](C)C[C@H](C)/C=C/C=C/C=C/1C [zotarolimus] , report its clearance.
result: 76.7 mL/min

* * *

test: Phase 1 multiple escalating dose study, QD intravenous infusion for 14 days, safety and pharmacokinetics
Format: in vivo, human
conditionDescription: human, whole blood; 200 μg QD IV infusion for 14 days, blood; harmonic mean ± pseudo-standard deviation; read-out: t½ (converted)
measuredParameter: half-life (h)
Reply with just the number (in h).

query: Report half-life for CO[C@H]1C[C@@H]2CC[C@@H](C)[C@@](O)(O2)C(=O)C(=O)N2CCCC[C@H]2C(=O)O[C@H]([C@H](C)C[C@@H]2CC[C@H](n3cnnn3)[C@H](OC)C2)CC(=O)[C@H](C)/C=C(\C)[C@@H](O)[C@@H](OC)C(=O)[C@H](C)C[C@H](C)/C=C/C=C/C=C/1C [zotarolimus] please.
result: 24.7

* * *

test: Phase 1 multiple escalating dose study, QD intravenous infusion for 14 days, safety and pharmacokinetics
Assay type: in vivo, human
conditionDescription: human, whole blood; 800 μg QD IV infusion for 14 days, blood, secondary predicted parameter; read-out: Vss
measuredParameter: Vd (L)
Write the value in L as a bare number.

query: Look up Vd for this molecule: `CO[C@H]1C[C@@H]2CC[C@@H](C)[C@@](O)(O2)C(=O)C(=O)N2CCCC[C@H]2C(=O)O[C@H]([C@H](C)C[C@@H]2CC[C@H](n3cnnn3)[C@H](OC)C2)CC(=O)[C@H](C)/C=C(\C)[C@@H](O)[C@@H](OC)C(=O)[C@H](C)C[C@H](C)/C=C/C=C/C=C/1C`
result: 118

* * *

test: Phase 1 multiple escalating dose study, QD intravenous infusion for 14 days, safety and pharmacokinetics
Type: in vivo, human
conditionDescription: human, whole blood; 800 μg QD IV infusion, Day 14, blood, secondary predicted parameter
measuredParameter: AUC (ng·h/mL)
All answers are understood in ng·h/mL, so give the number only.

query: # AUC lookup, item CO[C@H]1C[C@@H]2CC[C@@H](C)[C@@](O)(O2)C(=O)C(=O)N2CCCC[C@H]2C(=O)O[C@H]([C@H](C)C[C@@H]2CC[C@H](n3cnnn3)[C@H](OC)C2)CC(=O)[C@H](C)/C=C(\C)[C@@H](O)[C@@H](OC)C(=O)[C@H](C)C[C@H](C)/C=C/C=C/C=C/1C [zotarolimus]
result: 180

* * *

test: Phase 1 multiple escalating dose study, QD intravenous infusion for 14 days, safety and pharmacokinetics
Assay type: in vivo, human
conditionDescription: human, whole blood; 200-800 μg QD IV for 14 days; read-out: terminal elimination t1/2, range of means over the studied regimens
measuredParameter: half-life

query: Give its half-life value. Item: CO[C@H]1C[C@@H]2CC[C@@H](C)[C@@](O)(O2)C(=O)C(=O)N2CCCC[C@H]2C(=O)O[C@H]([C@H](C)C[C@@H]2CC[C@H](n3cnnn3)[C@H](OC)C2)CC(=O)[C@H](C)/C=C(\C)[C@@H](O)[C@@H](OC)C(=O)[C@H](C)C[C@H](C)/C=C/C=C/C=C/1C [zotarolimus]
result: 24.7 to 31 h

* * *

test: Phase 1 multiple escalating dose study, QD intravenous infusion for 14 days, safety and pharmacokinetics
Format: in vivo, human
conditionDescription: human, whole blood; 200 μg QD IV infusion, Day 14, blood, secondary predicted parameter
measuredParameter: AUC (ng·h/mL)
The answer is to be given in ng·h/mL; state only the numeric part.

query: Name the recorded AUC for CO[C@H]1C[C@@H]2CC[C@@H](C)[C@@](O)(O2)C(=O)C(=O)N2CCCC[C@H]2C(=O)O[C@H]([C@H](C)C[C@@H]2CC[C@H](n3cnnn3)[C@H](OC)C2)CC(=O)[C@H](C)/C=C(\C)[C@@H](O)[C@@H](OC)C(=O)[C@H](C)C[C@H](C)/C=C/C=C/C=C/1C [zotarolimus] .
result: 49
